Biological target: T1, human CLDN18.2 (human)
T1 construct: also called huCLDN18.2; hCLDN18.2
Test: flow cytometry, live cells from mouse tumor of A549 cells expressing CLDN18.2, antibody 4 µg/ml
Quick reference for % of positive tumor cells (Average) among some binders
Use % as the unit, but write only the number.

cCl1-1 (antibody, V domains shown, Chimeric antibody from a rat hybridoma; not built in; also called chimeric cCl1-1 antibody) VH: QIQLVQSGPELKKPGESVKISCKASGYTFTDYAMHWVKQAPGKGLKWMGWINTYTGKPTYADDFKGRFVFSLEASASTANLQISNLKNEDTATYFCARAVFYGYTMDAWGQGTSVTVSS VL: DIQMTQSPASLSASLGETISIACRASEDIYSNLAWYQQKSGKSPQLLIFSVKRLQDGVPSRFSGSGSGTQYSLKISGMQPEDEGDYFCLQGSNFPLTFGSGTKLEIK; 26

Give reported % of positive tumor cells (Average) value for hCl1c (antibody, human IgG1, kappa, V domains shown, Humanized) VH: QVQLVQSGAEVKKPGASVKVSCKASGYTFTDYAMHWVRQAPGQRLEWMGWINTYTGKPTYSQKFQGRVTITRDTSASTAYMELSSLRSEDTAVYYCARAVFYGYTMDAWGQGTLVTVSS VL: DIQMTQSPSSLSASVGDRVTITCRTSEDIYSNLAWYQQKPGKAPKLLIFAIKRLQDGVPSRFSGSGSGTDFTLTISSLQPEDFATYYCLQGSKFPLTFGQGTKVEIKR
18.5

Give recorded % of positive tumor cells (Average). hCl1f (antibody, human IgG1, kappa, V domains shown, Humanized) VH: QVQLVQSGAEVKKPGASVKVSCKASGYTFTDYAMHWVRQAPGQRLEWMGWINAYTGKPTYAQKFQGRVTITRDTSASTAYMELSSLRSEDTAVYYCARAVFYGYTMDAWGQGTLVTVSS VL: DIQMTQSPSSLSASVGDRVTITCRASEDIYSNLAWYQQKPGKAPKLLIYSVKRLQDGVPSRFSGSGSGTDFTLTISSLQPEDFATYYCLQGSNFPLTFGQGTKVEIKR
23

Write down % of positive tumor cells (Average) measured for item hCl1b (antibody, human IgG1, kappa, V domains shown, Humanized) VH: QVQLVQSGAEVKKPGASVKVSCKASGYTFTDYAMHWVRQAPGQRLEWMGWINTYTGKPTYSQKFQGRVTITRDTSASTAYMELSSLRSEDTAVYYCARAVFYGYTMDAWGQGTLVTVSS VL: DIQMTQSPSSLSASVGDRVTITCRASEDIYSNLAWYQQKPGKAPKLLIFSVKRLQDGVPSRFSGSGSGTDFTLTISSLQPEDFATYYCLQGSNFPLTFGQGTKVEIKR
30
